Catalogue of binders with associated EC50 (read off the curve)
- Test System: T1, recombinant full-length tau 2N4R (control tau) (human, UniProt P10636 2-758)
- T1 construct: also called recombinant WT (2N4R) tau; Rec; Tau
- T1 sequence (P10636 other isoform, or with tags, fused parts or gaps limits assumed): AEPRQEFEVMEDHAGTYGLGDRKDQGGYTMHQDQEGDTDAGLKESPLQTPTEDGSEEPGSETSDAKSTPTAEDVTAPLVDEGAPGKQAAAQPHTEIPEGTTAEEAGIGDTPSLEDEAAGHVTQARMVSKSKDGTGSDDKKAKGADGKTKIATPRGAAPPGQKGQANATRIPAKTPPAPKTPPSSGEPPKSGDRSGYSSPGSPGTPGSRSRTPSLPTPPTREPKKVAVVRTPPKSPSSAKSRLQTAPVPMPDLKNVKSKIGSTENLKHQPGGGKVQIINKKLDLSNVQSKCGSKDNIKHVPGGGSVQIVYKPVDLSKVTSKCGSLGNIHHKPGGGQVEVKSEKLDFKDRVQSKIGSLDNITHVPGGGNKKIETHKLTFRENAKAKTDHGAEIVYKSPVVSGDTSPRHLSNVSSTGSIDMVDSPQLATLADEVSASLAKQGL
- Method: direct ELISA on full-length 2N4R Tau coated at 10 ng/mL

>  <Binder>
hTau/60 hybridoma (antibody, V domains shown, parent of m1; also called hybridoma-produced hTau/60) VH: EVQLQQSGPELVKPGTSVKISCKVFGYTFTDYYMNWVKQSHGKSLEWIGDINPDNGETTYNQKFKGKATLTVDKSSSTAYMELRSLTSEDSAVYYCAKGATFVYWGQGTLVTVSA VL: DVVMTQTPLSLPVSLGDQASISCISSQSLVHSTGTTFLHWFLQKPGQSPKLLIYKVSNRFSGVPDRFSGSGSGTDFTLKISRVEAEDLGFYFCSQSTYFPLTFGSGTKLEIK

>  <EC50 (read off the curve)>
~5 ng/mL

$$$$
>  <Binder>
PT/66 hybridoma (antibody, V domains shown, parent of m2; also called hybridoma-produced PT/66) VH: QVQLQQPGAELVKPGASVKMSCKASGYTFTSYWITWVKQRPGQGLEWIGDIHPGRGSTKSNEKFKSKATLTVDTSSSTAYMQFSSLTSEDSAVYYCARRWGFDYWGQGTTLTVSS VL: DIVITQDELSNPVTSGESVSISCRSSKSLLYKDGKTYLNWFLQRPGQSPQLLIYLMSTRASGVSDRFSGSGSGTDFTLEISRVKAEDVGVYYCQQLVDYPLTFGAGTKLELK

>  <EC50 (read off the curve)>
~5 ng/mL

$$$$
>  <Binder>
PT66 monoclonal antibody (recombinant, mouse IgG2a/kappa) (antibody, V domains shown, also called PT66 (PT1B545)) VH: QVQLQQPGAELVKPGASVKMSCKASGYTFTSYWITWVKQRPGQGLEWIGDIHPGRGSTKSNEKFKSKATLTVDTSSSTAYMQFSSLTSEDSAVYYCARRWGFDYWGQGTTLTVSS VL: DIVITQDELSNPVTSGESVSISCRSSKSLLYKDGKTYLNWFLQRPGQSPQLLIYLMSTRASGVSDRFSGSGSGTDFTLEISRVKAEDVGVYYCQQLVDYPLTFGAGTKLELKR

>  <EC50 (read off the curve)>
~10 ng/mL

$$$$
>  <Binder>
hTau60 monoclonal antibody (recombinant, mouse IgG2a/kappa) (antibody, V domains shown, also called hTau60 (PT1B469)) VH: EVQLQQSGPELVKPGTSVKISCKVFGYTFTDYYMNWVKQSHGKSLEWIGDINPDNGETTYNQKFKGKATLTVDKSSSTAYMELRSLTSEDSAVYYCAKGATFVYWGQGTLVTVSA VL: DVVMTQTPLSLPVSLGDQASISCISSQSLVHSTGTTFLHWFLQKPGQSPKLLIYKVSNRFSGVPDRFSGSGSGTDFTLKISRVEAEDLGFYFCSQSTYFPLTFGSGTKLEIKR

>  <EC50 (read off the curve)>
~10 ng/mL

$$$$
